- Target: Human immunodeficiency virus type 1 integrase (Human immunodeficiency virus 1, UniProt Q7ZJM1)
- Sequence (Q7ZJM1 whole entry): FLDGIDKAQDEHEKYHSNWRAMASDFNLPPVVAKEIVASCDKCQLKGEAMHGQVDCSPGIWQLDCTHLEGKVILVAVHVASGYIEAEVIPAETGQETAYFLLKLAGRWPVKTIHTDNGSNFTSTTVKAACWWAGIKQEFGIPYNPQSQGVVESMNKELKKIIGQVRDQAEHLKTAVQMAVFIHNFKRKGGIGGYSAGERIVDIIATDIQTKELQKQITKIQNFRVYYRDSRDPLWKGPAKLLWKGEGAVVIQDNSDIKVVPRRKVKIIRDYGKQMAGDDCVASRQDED
- Assay details: Inhibition of recombinant HIV-1 integrase stand transfer activity expressed in Escherichia coli BL21(DE3) cells using 32P-labeled DNA substrate after 1 hr by densitometric analysis
pIC50: −log10 of the molar value.
Answer label 0 if pIC50 is under 6, and label 1 if it is 6 or more.

{"Smiles record": "CCOC(=O)c1c(-c2ccccc2)nc(=O)n(Cc2ccc(C(=O)/C=C(\\O)C(=O)O)cc2)c1C(C)C", "Category label": "label 0"}
{"Smiles record": "CCOC(=O)c1c(-c2ccccc2)nc(=O)n(Cc2ccc(C(=O)/C=C(\\O)C(=O)O)cc2)c1CC", "Category label": "label 1"}
{"Smiles record": "CCOC(=O)c1c(-c2ccc(OC)cc2)nc(=O)n(Cc2ccc(C(=O)/C=C(\\O)C(=O)O)cc2)c1C(C)C", "Category label": "label 0"}
{"Smiles record": "CCOC(=O)c1c(CC)nc(SCc2ccc(C(=O)/C=C(\\O)C(=O)O)cc2)nc1-c1ccc(OC)cc1", "Category label": "label 0"}
{"Smiles record": "CCOC(=O)c1c(-c2ccc(OC)cc2)nc(=O)n(Cc2ccc(C(=O)/C=C(\\O)C(=O)O)cc2)c1-c1ccccc1", "Category label": "label 0"}
{"Smiles record": "CCOC(=O)c1c(-c2ccc(F)cc2)nc(=O)n(Cc2ccc(C(=O)/C=C(\\O)C(=O)O)cc2)c1-c1ccccc1", "Category label": "label 0"}
